test: melting temperature; fluorescence melt of hairpins on a sequencing array, two-state fit, raised by 9.35 °C to match UV melts; conditions: sodium 0.088 M
Measured property: Tm (°C)

# Item sequence, Value units, Reported result
rows = [
    ("GATCAGCGAAAGCTAATC (((.(((....))).)))", "°C", 35.9),
    ("CGAGGACGGAAACGTTCG (((..(((....))))))", "°C", 43.1),
    ("GCGGAATCCCGC ((((....))))", "°C", 53.9),
    ("GATCGCAGAAGCGATC ((((((....))))))", "°C", 66.9),
    ("GCCTACGAAAGTAAGGC ((((((....))).)))", "°C", 56.9),
    ("GTTCCGGGAAACCGGAAC (((((((....)))))))", "°C", 68.7),
    ("GATCTGGACACAGATC ((((((....))))))", "°C", 58.5),
    ("GTTCTCGAAAGAGCAAC ((((((....))).)))", "°C", 32.7),
    ("GATCATGCGGATGATC ((((((....))))))", "°C", 47),
    ("GATCACTGATGTGATC ((((((....))))))", "°C", 55.9),
    ("GATTACGAAAGTATGATC ((((((....)))..)))", "°C", 14.5),
    ("GCTACACGAAAGTGCAGC (((.(((....))).)))", "°C", 53.1),
    ("GATCTCCCTGAGATC ((((((...))))))", "°C", 55.3),
    ("GCGCCTCCGAAAGGACGC (((..(((....))))))", "°C", 50.1),
    ("GGACCTGGAAACGGGTTC (.(((.(....).))).)", "°C", 38.6),
    ("GCACCGCGAAAGCGTTGC (((.(((....))).)))", "°C", 56.3),
    ("GCGTACCAACGC ((((....))))", "°C", 53.6),
    ("GGATGCGAAAGCAAATCC ((((((....)))..)))", "°C", 47.1),
    ("GAAGAAGAAATTCTTC ((((((....))))))", "°C", 38.1),
    ("GAGTTTGGAAACAGACTC ((((.((....)).))))", "°C", 41.1),
    ("GTAAATACGAAAGTATAC (((..(((....))))))", "°C", 25),
    ("GTAGTCCGAAAGGATAC (((.(((....))))))", "°C", 38),
    ("GTGGGCCGAAAGGCTCAC (((.(((....))).)))", "°C", 69.2),
    ("GATCTTATGAAGATC ((((((...))))))", "°C", 42.4),
    ("GGTTCAACGAAAGTTACC (((..(((....))))))", "°C", 27.8),
    ("GATCGAACGATCGATC ((((((....))))))", "°C", 52.8),
    ("GTAGTGGGAAACTACTAC (((((.(....).)))))", "°C", 47.5),
    ("GCTCGGGGAAACCCGAAC (.(((((....))))).)", "°C", 45.9),
    ("GGCTCCGCGAAAGCGGCC (((..(((....))))))", "°C", 41.4),
]
